meta.source: a melting point compilation (Tetko et al.)

Metric: melting point

Previously resolved entries follow.
[[record]]
compound = "COC(=O)C(=O)CC(C)=O"
metric = "melting point"
assay_value = "63 to 64 °C"

[[record]]
compound = "Oc1c(Br)cc(Br)c(Br)c1Br"
metric = "melting point"
assay_value = "114 °C"

[[record]]
compound = "O=[N+]([O-])c1ccc2c(c1)c(CO)cn2Cc1ccccc1"
metric = "melting point"
assay_value = "104 to 106 °C"

[[record]]
compound = "CC(=O)c1cc(O)cc(O)c1"
metric = "melting point"
assay_value = "143 to 147 °C"

[[record]]
compound = "O=C1NC(=O)C2(c3ccc(Cl)cc3)c3ccccc3CCN12 (configuration not stated)"
metric = "melting point"
assay_value = "215 to 216 °C"

[[record]]
compound = "O=C=Nc1cccc(Cl)c1"
metric = "melting point"
assay_value = "-4 °C"


// switching to the query compound
Would you kindly share the measured melting point for Nc1ccc(Cl)cc1I ?
40 to 42 °C

###

Metric: melting point (°C)
Dear colleague, please return just the value in °C, with no unit written.

Previously resolved entries follow.
[[record]]
compound = "Cc1c([N+](=O)[O-])cc(C(=O)N2CCCCCC2)cc1[N+](=O)[O-]"
assay_value = 106

[[record]]
compound = "Cc1ccc(O)cc1"
assay_value = 35.5

[[record]]
compound = "Nc1ccc(Cl)c(Cl)c1Cl"
assay_value = 73

[[record]]
compound = "O=C=Nc1c(F)cccc1F"
assay_value = 24

[[record]]
compound = "Cc1nnsc1C(=O)O"
assay_value = 185


// switching to the query compound
Would you kindly share the measured melting point for Cc1ccc(C)c2c1C(=O)N(C)C2=O ?
170

###

melting point values for the compounds below.
Dear colleague, please return just the value in °C, with no unit written.

Would you kindly share the measured melting point for Cc1ccn2nc(S(=O)(=O)Nc3c(F)cccc3F)nc2n1 ?
252

Can you check CC1C(c2ccc(Cl)cc2)SC(=O)N1C(=O)NC1CCCCC1 (configuration not stated) next?
108

Can you check CC(C)Oc1ccc(C(=O)NS(=O)(=O)c2ccc(N)cc2)cc1 next?
172

Can you check CCCCOCCOCCO next?
-68

Can you check CNC(N)=O next?
103

Can you check CC1OC(OC2CCC3(C=O)C4CCC5(C)C(C6=CC(=O)OC6)CCC5(O)C4CCC3(O)C2)C(O)C(O)C1O (configuration not stated) next?
238

Can you check O=C(C=NNc1ccccc1)c1ccc(C(=O)C=NNc2ccccc2)c([N+](=O)[O-])c1 next?
100

###

// class assignment uses melting point with these ranges: range A (below 50 °C), range B (50 °C to below 100 °C), range C (100 °C or more)

[[record]]
compound = "O=[N+]([O-])c1ccc2[nH]c(=S)[nH]c2c1"
answer_label = "range C"

[[record]]
compound = "NC=NO"
answer_label = "range C"

[[record]]
compound = "O=C(C1CCCCC1)N1CC(=O)N2CCc3ccccc3C2C1 (stereo unspecified)"
answer_label = "range C"

[[record]]
compound = "COc1ccc(-c2coc3cc(O)ccc3c2=O)cc1"
answer_label = "range C"

[[record]]
compound = "c1cnc2nc[nH]c2c1"
answer_label = "range C"


Which melting point band matches O=[N+]([O-])c1ccc(OS(=O)(=O)C(F)(F)F)cc1 ?
range B

Can you check ClCC(Cl)(Cl)C(Cl)(Cl)Cl next?
range A

Can you check CCCCCCCCCCCCCCCCCCCCBr next?
range A

Can you check NCCCC(O)(P(=O)(O)O)P(=O)(O)O next?
range C

###

melting point values for the compounds below.
Dear colleague, please return just the value in °C, with no unit written.

Previously resolved entries follow.
[[record]]
compound = "Cc1cc(-c2ccccc2)n(N)c(=O)c1C#N"
result_unit = "°C"
assay_value = 189

[[record]]
compound = "N#CC(C(=O)OCc1ccccc1)c1cc(C(F)(F)F)ccc1[N+](=O)[O-] (configuration not stated)"
result_unit = "°C"
assay_value = 71

[[record]]
compound = "O=C(O)C(F)=Cc1ccccc1"
result_unit = "°C"
assay_value = 158


Would you kindly share the measured melting point for COc1cc(C)ccc1S(=O)(=O)Cl ?
87

Can you check NNc1ccc(Cl)nn1 next?
137

Can you check CCOc1cccc2ccccc12 next?
5.5

Can you check COc1ccc(S(N)(=O)=O)cc1F next?
126

Can you check N#CCS(=O)(=O)c1cccs1 next?
84

Can you check Cc1cccc(C)c1NC(=O)C(C)N (configuration not stated) next?
256

Can you check CCCCc1cc2ccccc2c(O)c1C(C)=O next?
62

###

melting point values for the compounds below.
Dear colleague, please return just the value in °C, with no unit written.

Previously resolved entries follow.
[[record]]
compound = "O=C1/C(=C/c2ccc([N+](=O)[O-])cc2)SC(=S)N1CN1CCOCC1"
assay_value = 169

[[record]]
compound = "Fc1ccc(-c2ccc(F)cc2)cc1"
assay_value = 94.5

[[record]]
compound = "O=C(O)c1cc(Br)ccc1O"
assay_value = 170

[[record]]
compound = "COc1c(F)cc(F)cc1C#N"
assay_value = 35


Would you kindly share the measured melting point for C#CCOc1cc(-n2nc(C(C)(C)C)oc2=O)c(Cl)cc1Cl ?
131

Can you check Cc1cc(N)n(-c2ccccc2)n1 next?
116

Can you check O=c1cc(C(F)(F)F)nc2scc(-c3ccc(Br)cc3)n12 next?
171

Can you check CCC#CCCCCC(=O)O next?
14

Can you check CCc1ccc(CCO)nc1 next?
42

Can you check CC1CCC(C)(CNc2ccccc2)C1(C)C (stereo unspecified) next?
59

Can you check CC(=O)Nc1ccc(Br)cc1C(=O)O next?
223

Can you check CC(=O)c1ccc(C)c(F)c1 next?
33

###

melting point values for the compounds below.
Dear colleague, please return just the value in °C, with no unit written.

Would you kindly share the measured melting point for CC(C)CCCCCCCOC(=O)CCCCC(=O)OCCCCCCCC(C)C ?
27.4

Can you check O=C1CCCCCCN1 next?
36.5

Can you check CCOC(=O)NNC(=O)OCC next?
135

###

// class assignment uses melting point with these ranges: range 1: < -30 °C; range 2: ≥ -30 °C and < 100 °C; range 3: ≥ 100 °C

Examples with answers:
[[record]]
compound = "N#CCCCC#N"
answer_label = "range 2"

[[record]]
compound = "Fc1cccc(C(F)(F)F)c1"
answer_label = "range 1"

[[record]]
compound = "C#CC(=C)C"
answer_label = "range 1"


Which melting point band matches O=CC=P(c1ccccc1)(c1ccccc1)c1ccccc1 ?
range 3

Can you check COC(=O)Cn1ccnc1[N+](=O)[O-] next?
range 2

Can you check O=NN1NC(=O)CC1c1ccc(C2CC(=O)NN2N=O)cc1 (centres undefined) next?
range 3

Can you check CCCC(C)C1(CC)C(=O)NC(=S)NC1=O (centres undefined) next?
range 3

Can you check N#CCOc1cccc(Cl)c1 next?
range 2

###

Metric: melting point (°C)
Dear colleague, please return just the value in °C, with no unit written.

[[record]]
compound = "CCCCCCCOC(=O)CCCC"
assay_value = -46.4

[[record]]
compound = "CC(=O)CC(c1ccco1)c1c(O)c2ccccc2oc1=O (centres undefined)"
assay_value = 124

[[record]]
compound = "O=C(c1ccccc1)c1ccc(C(F)(F)F)c(F)c1"
assay_value = 66


Would you kindly share the measured melting point for CC(C)C(=O)OCCCc1ccccc1 ?
-60

Can you check O=C(NC1CCCCC1)C(Br)(C(F)(F)F)C(F)(F)F next?
87

Can you check C=C1CC23CC1(O)CCC2C12C=CC(O)C(C)(C(=O)O1)C2C3C(=O)O (centres undefined) next?
227

Can you check O=S(O)c1ccccc1 next?
84

Can you check Nc1oc2ccc(Cl)cc2c(=O)c1C=O next?
300

Can you check NCC(O)C(=O)O (centres undefined) next?
235

###

melting point values for the compounds below.
Dear colleague, please return just the value in °C, with no unit written.

Previously resolved entries follow.
[[record]]
compound = "Cc1c(O)cc2c(c1C)OC(C)(CCCC(C)CCCC(C)CCCC(C)C)CC2 (configuration not stated)"
assay_value = -3

[[record]]
compound = "O=c1c(Cc2c(O)oc3ccccc3c2=O)c(O)oc2ccccc12"
assay_value = 290

[[record]]
compound = "CC(=O)C(C)(CCC(=O)O)CCC(=O)O"
assay_value = 123


Would you kindly share the measured melting point for CC(=O)C1=Cc2ccccc2C1 ?
122

Can you check CC(C)c1ccc(CC(=O)O)cc1 next?
52

Can you check O=C(Nc1ccccc1)Nc1ccnc(Cl)c1 next?
167

Can you check COC(=O)C(O)C(O)C(=O)OC (configuration not stated) next?
59

###

Metric: melting point (°C)
Dear colleague, please return just the value in °C, with no unit written.

[[record]]
smiles_data = "O=C(Oc1cc(Cl)cc(Cl)c1)c1ccc(C(=O)Oc2cc(Cl)cc(Cl)c2)cc1"
assay_value = 230

[[record]]
smiles_data = "Oc1nc(CCc2ccccc2)nn1-c1ccccc1"
assay_value = 182


// switching to the query molecule
Would you kindly share the measured melting point for COc1cccc(N(C)C(=S)Oc2cccc(C(C)(C)C)c2)n1 ?
86
